Reference source for all entries: BindingDB's records for doi:10.1021/jm010496a

# STUDY TARGET: Fructose-1,6-bisphosphatase 1 (Sus scrofa) (UniProt P00636)
# Sequence (P00636 whole entry, looked up): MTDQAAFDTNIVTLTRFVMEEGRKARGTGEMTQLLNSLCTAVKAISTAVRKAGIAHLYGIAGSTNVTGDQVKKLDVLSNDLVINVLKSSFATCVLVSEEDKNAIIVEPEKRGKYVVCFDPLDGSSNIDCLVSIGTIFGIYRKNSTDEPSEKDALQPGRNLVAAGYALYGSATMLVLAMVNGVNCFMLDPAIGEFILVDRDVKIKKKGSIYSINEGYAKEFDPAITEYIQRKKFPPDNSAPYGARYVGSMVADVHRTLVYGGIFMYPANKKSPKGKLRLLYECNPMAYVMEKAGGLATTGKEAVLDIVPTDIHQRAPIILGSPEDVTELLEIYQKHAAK
# EXPERIMENT DESCRIPTION: Concentration required for 50% Inhibition against recombinant wild type pig enzyme (F16BP) Fructose-1,6-bisphosphatase
READOUT TYPE: IC50 (µM)
Answers are plain numbers, in µM.

q: # query: IC50 of entry CCOc1cc2nc(CN(C)C)nc(Nc3cccc(-c4csc(C(N)=O)n4)c3)c2cc1OCC
a: 9.5
